Entries and their melting point values follow.

# example entries with known answers
>>> measurement("COc1ccc(CC2CCCN(c3nc(C)c(C(=O)NCc4ccccc4)s3)C2=O)cc1 (stereo not shown)")
"116 to 118 °C"
>>> measurement("Cc1nc(N2CCC(Cc3ccc(C(F)(F)F)cc3)C2=O)sc1C(=O)NCc1ccc(F)cc1 (stereo not shown)")
"175 to 176 °C"
>>> measurement("Cc1nc(N2CCC(Cc3ccc(F)cc3)C2=O)sc1C(=O)NCc1cccnc1 (stereo not shown)")
"169 to 170 °C"
>>> measurement("Cc1nc(N2CC(Cc3ccccc3)CC2=O)sc1C(=O)NCc1ccccc1 (stereo not shown)")
"143 to 144 °C"
>>> measurement("Cc1nc(N2CCCC(Cc3ccccc3)C2=O)sc1C(=O)NCc1ccccc1 (stereo not shown)")
"162 to 164 °C"
>>> measurement("Cc1nc(N2CCC(Cc3ccc(OC(F)(F)F)cc3)C2=O)sc1C(=O)NCc1cccnc1 (stereo not shown)")
"158 to 160 °C"

// query If you can, please state the reported melting point value of Cc1nc(N2CCC(NCc3ccc(F)cc3)C2=O)sc1C(=O)NCc1ccc(F)cc1 (stereo not shown) .
// result 123 to 124 °C

// query If you can, please state the reported melting point value of Cc1nc(N2CCCC(NCC3CC3)C2=O)sc1C(=O)NCc1ccccc1 (stereo not shown) .
// result 125 to 126 °C

// query If you can, please state the reported melting point value of Cc1nc(N2CCCC(CCCc3ccccc3)C2=O)sc1C(=O)NCc1ccccc1 (stereo not shown) .
// result 140 to 141 °C

// query If you can, please state the reported melting point value of Cc1nc(N2CCCC(Cc3ccc(F)cc3)C2=O)sc1C(=O)NCc1cccc(F)c1 (stereo not shown) .
// result 173 to 175 °C

// query If you can, please state the reported melting point value of Cc1nc(N2CCC(NCCC(F)(F)F)C2=O)sc1C(=O)NCc1ccc(F)cc1 (stereo not shown) .
// result 142 to 143 °C

// query If you can, please state the reported melting point value of Cc1nc(N2CCC(Cc3ccc(OC(F)F)cc3)C2=O)sc1C(=O)NCc1ccc(F)cc1 (stereo not shown) .
// result 143 to 145 °C

// query If you can, please state the reported melting point value of Cc1nc(N2CCCC(Cc3cccc(F)c3)C2=O)sc1C(=O)NCc1ccccc1 (stereo not shown) .
// result 170 to 171 °C

// query If you can, please state the reported melting point value of Cc1nc(N2CCC(NCCC3CC3)C2=O)sc1C(=O)NCc1ccc(F)cc1 (stereo not shown) .
// result 151 to 152 °C

// query If you can, please state the reported melting point value of Cc1nc(N2CCC/C(=C\c3cccnc3)C2=O)sc1C(=O)NCc1ccccc1 .
// result 206 to 208 °C

// query If you can, please state the reported melting point value of Cc1nc(N2CCC(Cc3ccc(OC(F)(F)F)cc3)C2=O)sc1C(=O)NCc1ccc(F)cc1 (stereo not shown) .
// result 165 to 166 °C

// query If you can, please state the reported melting point value of Cc1nc(N2CCCC(Cc3ccc(C(F)(F)F)cc3)C2=O)sc1C(=O)NCc1ccccc1 (stereo not shown) .
// result 217 to 218 °C

// query If you can, please state the reported melting point value of Cc1nc(N2CCCC(Cc3cccnc3)C2=O)sc1C(=O)NCc1ccccc1 (stereo not shown) .
// result 140 to 141 °C

// query If you can, please state the reported melting point value of Cc1nc(N2CCCC(NCc3ccc(C(F)(F)F)cc3)C2=O)sc1C(=O)NCc1ccccc1 (stereo not shown) .
// result 39 to 40 °C

// query If you can, please state the reported melting point value of Cc1nc(N2CCC(CC3CC3)C2=O)sc1C(=O)NCc1ccc(F)cc1 (stereo not shown) .
// result 153 to 155 °C

// query If you can, please state the reported melting point value of Cc1nc(N2CCCC(CCc3ccccc3)C2=O)sc1C(=O)NCc1ccccc1 (stereo not shown) .
// result 124 to 126 °C

// query If you can, please state the reported melting point value of Cc1nc(N2CCC(Cc3ccc(F)cc3)C2=O)sc1C(=O)NCc1ccc(F)cc1 (stereo not shown) .
// result 196 to 197 °C

// query If you can, please state the reported melting point value of Cc1nc(N2C[C@@H](O)CC2=O)sc1C(=O)NCc1ccccc1 .
// result 203 to 204 °C

// query If you can, please state the reported melting point value of Cc1nc(N2CCCC(Cc3ccc(F)cc3)C2=O)sc1C(=O)NCc1ccccc1 (stereo not shown) .
// result 154 to 155 °C

// query If you can, please state the reported melting point value of Cc1nc(N2CCCCC2=O)sc1C(=O)NCc1ccccc1 .
// result 175 to 176 °C

// query If you can, please state the reported melting point value of CCc1ccc(/C=C2\CCCN(c3nc(C)c(C(=O)NCc4ccccc4)s3)C2=O)s1 .
// result 171 to 172 °C

// query If you can, please state the reported melting point value of Cc1nc(N2CCCC2=O)sc1C(=O)NCc1ccccc1 .
// result 222 to 224 °C

* * *

Entries and their melting point values follow.

# example entries with known answers
>>> measurement("Cc1nc(N2CCCC(Cc3cc(F)ccc3F)C2=O)sc1C(=O)NCc1ccccc1 (stereo not shown)")
"144 to 145 °C"
>>> measurement("Cc1ccc(CC2CCCN(c3nc(C)c(C(=O)NCc4ccccc4)s3)C2=O)cc1 (stereo not shown)")
"110 to 113 °C"
>>> measurement("Cc1nc(N2CCC(Cc3ccc(OC(F)F)cc3)C2=O)sc1C(=O)NCc1ccccc1 (stereo not shown)")
"132 to 133 °C"

// query If you can, please state the reported melting point value of Cc1nc(N2CCC(Cc3ccc(C(F)(F)F)cc3)C2=O)sc1C(=O)NCc1ccccc1 (stereo not shown) .
// result 174 to 175 °C

// query If you can, please state the reported melting point value of Cc1nc(N2CCCC(C(O)c3ccccc3)C2=O)sc1C(=O)NCc1ccccc1 (stereo not shown) .
// result 74 to 75 °C

// query If you can, please state the reported melting point value of Cc1nc(N2CCCC(Cc3ccc(C(F)(F)F)cc3)C2=O)sc1C(=O)NCc1cccc(F)c1 (stereo not shown) .
// result 177 to 178 °C

// query If you can, please state the reported melting point value of Cc1nc(N2C[C@H](O)CC2=O)sc1C(=O)NCc1ccccc1 .
// result 203 to 204 °C
